meta.source: ChEMBL document CHEMBL4145448

PROCEDURE_TEXT: Selectivity index, ratio of CC50 for human HepG2 cells in presence of 1% FBS to MIC for Pseudomonas aeruginosa isolate M146201
Format: toxicity
MEASUREMENT_CONDITIONS: read-out: Selectivity Index
API: label(entry) gives TRUE if the entry's selectivity ratio is strictly smaller than 1; on equality or larger values it gives FALSE.

Reference set, count: 4
SMILES_RECORD: N#Cc1ccc2c(c1)[I+]c1ccccc1-2
CATEGORY_LABEL: TRUE
--
SMILES_RECORD: c1ccc2c(c1)[I+]c1c-2ccc2ccccc12
CATEGORY_LABEL: TRUE
--
SMILES_RECORD: Clc1ccc2c(c1)-c1ccccc1[I+]2
CATEGORY_LABEL: FALSE
--
SMILES_RECORD: COc1ccc2c(c1)[I+]c1ccccc1-2
CATEGORY_LABEL: TRUE

Item "COc1ccc2c(c1)-c1ccccc1[I+]2" : selectivity ratio beneath 1, strictly?
TRUE

Item "Cc1ccc2c(c1)[I+]c1ccccc1-2.O=S(=O)([O-])C(F)(F)F" : selectivity ratio beneath 1, strictly?
TRUE

Item "Clc1cccc2c1-c1ccccc1[I+]2" : selectivity ratio beneath 1, strictly?
FALSE

Item "c1ccc2c(c1)[I+]c1ccccc1-2" : selectivity ratio beneath 1, strictly?
FALSE

Item "Cc1cccc2c1-c1ccccc1[I+]2" : selectivity ratio beneath 1, strictly?
FALSE

Item "N#Cc1ccc2c(c1)-c1ccccc1[I+]2" : selectivity ratio beneath 1, strictly?
FALSE

Item "Fc1ccc2c(c1)[I+]c1ccccc1-2" : selectivity ratio beneath 1, strictly?
FALSE
